- TESTED ON: HIV-1 HXB2 envelope glycoprotein (gp41 subunit, N-helix coiled-coil) (HIV-1 (HXB2), UniProt P04578 512-856)
- Sequence (P04578 512-856): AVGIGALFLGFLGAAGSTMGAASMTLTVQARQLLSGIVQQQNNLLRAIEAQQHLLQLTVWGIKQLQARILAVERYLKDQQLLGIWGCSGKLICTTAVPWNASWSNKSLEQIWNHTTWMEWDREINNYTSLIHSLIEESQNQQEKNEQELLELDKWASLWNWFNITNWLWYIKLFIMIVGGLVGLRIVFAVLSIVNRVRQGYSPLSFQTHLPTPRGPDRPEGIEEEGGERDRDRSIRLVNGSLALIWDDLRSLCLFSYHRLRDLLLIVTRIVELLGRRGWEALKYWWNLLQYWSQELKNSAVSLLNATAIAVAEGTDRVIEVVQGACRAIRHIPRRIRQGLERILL
- TEST NAME: cell-based or functional assay
OBSERVED PROPERTY: IC50 (nanomolar) virus entry
Form entry: enter the amount, then its unit.

Some binders with known IC50 (nanomolar) virus entry results, for comparison:
>>> result("Ac-WMEGDREINNYTSLIHSLIEESQNQQEKNEQELL-NH2 [C34 Trp^631→Gly]")
"38 nM"
>>> result("Ac-WMEVDREINNYTSLIHSLIEESQNQQEKNEQELL-NH2 [C34 Trp^631→Val]")
"13 nM"

Query binder follows.
# input binder: Ac-WMELDREINNYTSLIHSLIEESQNQQEKNEQELL-NH2 [C34 Trp^631→Leu] ; wanted: its IC50 (nanomolar) virus entry
5.3 nM
